Experiment: Clearance in rat at 1 mg/kg, iv and 1 mg/kg, po
Format: ADME, organism-based
Conditions: in vivo
quantity: clearance
Give me the value, and tack the unit on after it.

Prompt: Please give measured clearance of the following entry: CC(C)(C)c1ccccc1Oc1ncccc1NC(=O)Nc1ccc(OC(F)(F)F)cc1
Completion: 0.96 L/h/kg

* * *

Assay: Permeability across human Caco2 cells
Type: ADME, cell-based
Settings: Caco-2, read-out: permeability
quantity: Papp (×10⁻⁶ cm/s)
Quick note: give the figure in ×10⁻⁶ cm/s, leave out the unit.

Prompt: Give recorded Papp. CC(C)(C)c1ccccc1Oc1ncccc1NC(=O)Nc1ccc(OC(F)(F)F)cc1
Completion: 2.1

* * *

Assay: Oral bioavailability in rat at 30 mg/kg
Assay type: ADME, organism-based
Details: in vivo
quantity: bioavailability
Please don't drop the unit; write it after the number.

Prompt: // fetch bioavailability given entry CC(C)(C)c1ccccc1Oc1ncccc1NC(=O)Nc1ccc(OC(F)(F)F)cc1
Completion: 18%

* * *

Assay: Volume of distribution at steady state in rat at 1 mg/kg, iv and 1 mg/kg, po
Format: ADME, organism-based
Settings: in vivo, read-out: Vdss
quantity: Vd (L/kg)
Quick reminder: number only, in L/kg, skip the unit.

Prompt: Give the reported value of Vd for this record: CC(C)(C)c1ccccc1Oc1ncccc1NC(=O)Nc1ccc(OC(F)(F)F)cc1
Completion: 5.6

* * *

Assay: Tmax in rat at 1 mg/kg, iv and 1 mg/kg, po
Format: ADME, organism-based
Details: in vivo
quantity: Tmax (min)
State just the number; it will be interpreted in min.

Prompt: Name the recorded Tmax of the compound listed here: CC(C)(C)c1ccccc1Oc1ncccc1NC(=O)Nc1ccc(OC(F)(F)F)cc1
Completion: 48

* * *

Test: Clearance in rat at 1 mg/kg, iv and 30 mg/kg, po
Format: ADME, organism-based
Conditions: in vivo
quantity: clearance (mL/min/kg)
Numbers only here, please. The scale is mL/min/kg.

Prompt: State its clearance: CC(C)(C)c1ccccc1Oc1ncccc1NC(=O)Nc1ccc(OC(F)(F)F)cc1
Completion: 13

* * *

System: Plasma
Assay: Plasma concentration in rat at 0.1 mg/kg, bolus followed by 0.1 mg/kg/h, iv infusion
Type: ADME, organism-based
Details: in vivo
quantity: concentration
Returns: string containing the numeric result and its unit.

Prompt: Using known records, supply concentration for CC(C)(C)c1ccccc1Oc1ncccc1NC(=O)Nc1ccc(OC(F)(F)F)cc1
Completion: 400 nM

* * *

Assay: Half life in rat at 1 mg/kg, iv and 30 mg/kg, po
Assay type: ADME, organism-based
Settings: in vivo
quantity: half-life (h)
Lab book: enter the figure in h, no units written.

Prompt: Find the measured half-life of CC(C)(C)c1ccccc1Oc1ncccc1NC(=O)Nc1ccc(OC(F)(F)F)cc1 and report it.
Completion: 1.43

* * *

Test system: Plasma
Assay: Plasma concentration in rat at 0.5 mg/kg, bolus followed by 0.5 mg/kg/h, iv infusion
Type: ADME, organism-based
Details: in vivo
quantity: concentration
Please format your answer as a value with the unit trailing.

Prompt: Provide the reported concentration (system: Plasma) for CC(C)(C)c1ccccc1Oc1ncccc1NC(=O)Nc1ccc(OC(F)(F)F)cc1
Completion: 1800 nM

Where do these numbers come from? They come from ChEMBL document CHEMBL2331383.
